These measurements were taken from PubChem BioAssay AID743279.

# assay-details: qHTS for Inhibitors of Inflammasome Signaling: IL-1-beta AlphaLISA Primary Screen
# measurement-setup: THP-1 LPS/ATP IL-1B secretion, 16 h; at 57.5 µM
Hit rate of the full screen: of about 360,000 compounds, about 17,000 (4.7%) were called active. Roughly 5% stayed inconclusive and do not appear here. Rule as the data show it: active = activity change below about -50%; inconclusive = mostly about -30% to -49%; inactive = weaker than that. Many of the other results were omitted from the sample, so actives are more common in it than they were.
Outcomes: active, inactive

COC(=O)c1ccc2nc(-c3ccc(Cl)cc3)c(Cc3cccc(F)c3)n2c1 :: inactive
C=CCC[C@H](Cc1ccc(F)cc1)C(=O)OC[C@H](C)NC(=O)[C@H](CC=C)CC(=O)N(CCO)Cc1ccccc1 :: inactive
CN(C)C(=O)CCc1ccc2c3c([nH]c2c1)[C@]1(CCc2ccccc2)[C@@H](C(=O)N2CCCCC2)C[C@H](CC(=O)NCCC2=CCCCC2)C(=O)N1CC3 :: inactive
CN(C)C(=O)CCc1ccc2c3c([nH]c2c1)[C@]1(C)[C@@H](C(=O)N2CCCCC2)C[C@H](CC(=O)NCCC2=CCCCC2)C(=O)N1CC3 :: inactive
Cc1cccc(N(C)C(=O)c2cc3c(=O)[nH]c4ccc(C)cc4c3s2)c1 :: inactive
CCN(CC)CCCNC(=O)c1cc2c(=O)[nH]c3ccc(C)cc3c2s1 :: active
CC(OC(=O)c1cccc(S(=O)(=O)N2CCOCC2)c1)C(=O)NCC1CCCCC1 (stereo not drawn) :: inactive
CCN(CC)CCCNC(=O)c1cc(-c2cccc(Cl)c2)on1 :: inactive
